# target entity: panel of 255 wild-type kinases (Homo sapiens)
# method: Kinase panel profiling at 1 µmol/L (MSA or IMAP), percentage inhibition
# Assay type: biochemical
# conditions: PAK2; 1 µmol/L single concentration; read-out: %-inhibition, PAK2
endpoint label: inhibition at 1 µM (%)

Answered examples (5):
inhibition at 1 µM for Cn1cnc2c(F)c(Nc3ccc(Br)cc3Cl)c(C(=O)NOCCO)cc21 ? -3.7

inhibition at 1 µM for Cn1cnc2c(F)c(Nc3ccc(Br)cc3F)c(C(=O)NOCCO)cc21 ? 12

inhibition at 1 µM for COc1ccc(CN2C3CC2CN(c2ccc(-c4cc(OCC(C)(C)O)cn5ncc(C#N)c45)cn2)C3)cn1 ? 5

inhibition at 1 µM for CCN1C(=O)N(c2c(F)c(OC)cc(OC)c2F)Cc2cnc3[nH]c(CN4CCOCC4)cc3c21 ? 6

inhibition at 1 µM for FC(F)(F)c1ccc(CNc2ccc(Cc3c[nH]c4ncc(Cl)cc34)cn2)cn1 ? -2.4

I: CO[C@]1(C(=O)N[C@@H](C)c2ccc(-n3cc(F)cn3)nc2)CC[C@H](c2nc(C)cc(Nc3cc(C)[nH]n3)n2)CC1
II: C[C@H](Nc1ncnc2nc[nH]c12)c1cc2cccc(Cl)c2c(=O)n1-c1ccccc1
III: O=C(Nc1cnn2ccc(N3CCC[C@@H]3c3cc(F)ccc3F)nc12)N1CC[C@H](O)C1
Rank the items in ascending order with respect to inhibition at 1 µM. Form entry: ranked labels (order as requested). III, II, I

---

# target entity: panel of 255 wild-type kinases (Homo sapiens)
# method: Kinase panel profiling at 1 µmol/L (MSA or IMAP), percentage inhibition
# Assay type: biochemical
# conditions: kinase EPHA8; 1 µmol/L single concentration; read-out: %-inhibition at 1 µmol/L, EPHA8
endpoint label: inhibition at 1 µM (%)
Field format: number, assumed %, no unit text.

inhibition at 1 µM for CCn1c(=O)c(-c2cc(NC(=O)Nc3ccccc3)c(F)cc2Br)cc2cnc(NC)cc21 [ripretinib] ? 101

inhibition at 1 µM for Cn1cnc2c(F)c(Nc3ccc(Br)cc3Cl)c(C(=O)NOCCO)cc21 [selumetinib] ? -12

inhibition at 1 µM for Cn1cc(-c2cc3c(N4CCN(c5ncc([C@@](C)(N)c6ccc(F)cc6)cn5)CC4)ncnn3c2)cn1 [avapritinib] ? 73

New cases:
inhibition at 1 µM for CCN1C(=O)N(c2c(F)c(OC)cc(OC)c2F)Cc2cnc3[nH]c(CN4CCOCC4)cc3c21 [pemigatinib] ? -6

---

# System: 134 cancer cell lines
# method: Cell viability assay (ATPlite, 72 hours), IC50 on cancer cell line panel
# conditions: Homo sapiens, SW900, read-out: IC50 in cell proliferation assay, cell line SW900
endpoint label: IC50 (µM)

Answered examples (2):
IC50 for COC(=O)N[C@@H](C)CNc1nccc(-c2cn(C(C)C)nc2-c2cc(Cl)cc(NS(C)(=O)=O)c2F)n1 ? 1.39

IC50 for O=C(c1ccc(F)c(F)c1Nc1ccc(I)cc1F)N1CC(O)([C@@H]2CCCCN2)C1 ? 0.295

P: COc1cc2ncnc(Nc3ccc(F)c(Cl)c3)c2cc1NC(=O)/C=C/CN1CCCCC1
Q: Cn1cnc2c(F)c(Nc3ccc(Br)cc3F)c(C(=O)NOCCO)cc21
R: C[C@H](Nc1ncnc2nc[nH]c12)c1cc2cccc(Cl)c2c(=O)n1-c1ccccc1
Rank the items in ascending order with respect to IC50. Form entry: ranked labels (order as requested). Q, P, R

---

# target entity: panel of 255 wild-type kinases (Homo sapiens, UniProt P07948)
# Sequence (P07948 whole entry): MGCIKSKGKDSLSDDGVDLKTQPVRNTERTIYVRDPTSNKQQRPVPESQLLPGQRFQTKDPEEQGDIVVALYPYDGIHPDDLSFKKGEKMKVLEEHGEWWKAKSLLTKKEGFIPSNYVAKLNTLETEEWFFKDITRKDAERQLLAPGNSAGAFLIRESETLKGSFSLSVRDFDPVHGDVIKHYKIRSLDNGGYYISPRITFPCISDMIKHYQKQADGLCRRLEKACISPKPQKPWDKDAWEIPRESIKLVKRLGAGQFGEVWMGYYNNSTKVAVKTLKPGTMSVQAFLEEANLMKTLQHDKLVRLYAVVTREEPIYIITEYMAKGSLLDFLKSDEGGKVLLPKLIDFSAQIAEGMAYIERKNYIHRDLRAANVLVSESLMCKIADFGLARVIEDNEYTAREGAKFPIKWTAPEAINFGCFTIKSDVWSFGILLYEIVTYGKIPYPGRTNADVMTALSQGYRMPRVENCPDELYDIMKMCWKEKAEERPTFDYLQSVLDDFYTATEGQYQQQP
# method: Kinase panel profiling at 1 µmol/L (MSA or IMAP), percentage inhibition
# Assay type: biochemical
# conditions: kinase LYNa; 1 µmol/L single concentration; read-out: %-inhibition at 1 µmol/L, LYNa
Recorded measurements of inhibition at 1 µM, one per entry
Field format: number, assumed %, no unit text.

Answered examples (2):
Find the measured inhibition at 1 µM: item CCn1c(=O)c(-c2cc(NC(=O)Nc3ccccc3)c(F)cc2Br)cc2cnc(NC)cc21 [ripretinib] , target or system panel of 255 wild-type kinases (Homo sapiens, UniProt P07948). 85

Find the measured inhibition at 1 µM: item CCc1nc(C(N)=O)c(Nc2ccc(N3CCC(N4CCN(C)CC4)CC3)c(OC)c2)nc1NC1CCOCC1 [gilteritinib] , target or system panel of 255 wild-type kinases (Homo sapiens, UniProt P07948). 88

Would you kindly look at the next entry?
Find the measured inhibition at 1 µM: item COc1cc2ncnc(Nc3ccc(F)c(Cl)c3)c2cc1NC(=O)/C=C/CN1CCCCC1 [dacomitinib] , target or system panel of 255 wild-type kinases (Homo sapiens, UniProt P07948). 79

---

# target entity: panel of 255 wild-type kinases (Homo sapiens, UniProt P08631)
# Sequence (P08631 whole entry): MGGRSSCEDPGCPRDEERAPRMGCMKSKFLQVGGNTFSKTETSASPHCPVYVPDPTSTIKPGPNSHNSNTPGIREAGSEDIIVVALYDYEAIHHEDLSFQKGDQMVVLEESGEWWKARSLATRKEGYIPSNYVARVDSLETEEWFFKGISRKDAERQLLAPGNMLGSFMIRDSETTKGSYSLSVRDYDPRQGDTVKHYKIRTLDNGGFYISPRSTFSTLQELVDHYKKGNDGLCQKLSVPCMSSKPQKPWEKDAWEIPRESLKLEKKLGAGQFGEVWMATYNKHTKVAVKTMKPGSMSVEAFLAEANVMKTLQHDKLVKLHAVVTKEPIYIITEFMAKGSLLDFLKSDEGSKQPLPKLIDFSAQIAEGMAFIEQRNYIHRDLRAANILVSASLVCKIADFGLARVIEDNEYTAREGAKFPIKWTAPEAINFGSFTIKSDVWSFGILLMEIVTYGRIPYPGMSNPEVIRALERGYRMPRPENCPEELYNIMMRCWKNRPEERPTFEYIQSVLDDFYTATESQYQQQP
# method: Kinase panel profiling at 1 µmol/L (MSA or IMAP), percentage inhibition
# Assay type: biochemical
# conditions: kinase HCK; 1 µmol/L single concentration; read-out: %-inhibition at 1 µmol/L, HCK
endpoint label: inhibition at 1 µM (%)

Find the measured inhibition at 1 µM: item C[C@H]1Oc2cc(cnc2N)-c2c(nn(C)c2C#N)CN(C)C(=O)c2ccc(F)cc21 , target or system panel of 255 wild-type kinases (Homo sapiens, UniProt P08631). 42

P: Cc1cc(Nc2ncnc3ccc(NC4=NC(C)(C)CO4)cc23)ccc1Oc1ccn2ncnc2c1
Q: COc1cc2ncnc(Nc3ccc(F)c(Cl)c3)c2cc1NC(=O)/C=C/CN1CCCCC1
Of the two listed items, which has the higher inhibition at 1 µM? First: P Second: Q Let me know the label of the one you choose. Q
(Q: 57%, P: -3%)

---

Recorded measurements of IC50, one per entry
# System: 134 cancer cell lines
# method: Cell viability assay (ATPlite, 72 hours), IC50 on cancer cell line panel
# conditions: Homo sapiens, TCC-SUP, read-out: IC50 in cell proliferation assay
Field format: number, assumed nM, no unit text.

IC50 for CCN1C(=O)N(c2c(F)c(OC)cc(OC)c2F)Cc2cnc3[nH]c(CN4CCOCC4)cc3c21 [pemigatinib] ? 606

New cases:
IC50 for CCn1c(=O)c(-c2cc(NC(=O)Nc3ccccc3)c(F)cc2Br)cc2cnc(NC)cc21 [ripretinib] ? 1290

---

# System: panel of 255 wild-type kinases
# method: Kinase panel profiling at 1 µmol/L (MSA or IMAP), percentage inhibition
# Assay type: biochemical
# conditions: kinase FYN [isoform b]; 1 µmol/L single concentration
endpoint label: %-inhibition at 1 µmol/L, FYN [isoform b] (%)

%-inhibition at 1 µmol/L, FYN [isoform b] for Cc1nc(NC(=O)N2CCC[C@H]2C(N)=O)sc1-c1ccnc(C(C)(C)C(F)(F)F)c1 ? -5.63

%-inhibition at 1 µmol/L, FYN [isoform b] for C[C@H](Nc1ncnc2nc[nH]c12)c1cc2cccc(Cl)c2c(=O)n1-c1ccccc1 ? 0.6

%-inhibition at 1 µmol/L, FYN [isoform b] for COc1ccc(CN2C3CC2CN(c2ccc(-c4cc(OCC(C)(C)O)cn5ncc(C#N)c45)cn2)C3)cn1 ? 10

1: CO[C@]1(C(=O)N[C@@H](C)c2ccc(-n3cc(F)cn3)nc2)CC[C@H](c2nc(C)cc(Nc3cc(C)[nH]n3)n2)CC1
2: Cn1cnc2c(F)c(Nc3ccc(Br)cc3Cl)c(C(=O)NOCCO)cc21
Of the two listed items, which has the higher %-inhibition at 1 µmol/L, FYN [isoform b]? First: 1 Second: 2 Let me know the label of the one you choose. 1
(1: 30%, 2: -1.85%)

A: COc1cc2ncnc(Nc3ccc(F)c(Cl)c3)c2cc1NC(=O)/C=C/CN1CCCCC1
B: Cn1cnc2c(F)c(Nc3ccc(Br)cc3F)c(C(=O)NOCCO)cc21
Of the two listed items, which has the higher %-inhibition at 1 µmol/L, FYN [isoform b]? First: A Second: B Let me know the label of the one you choose. A

A: O=C(Nc1cnn2ccc(N3CCC[C@@H]3c3cc(F)ccc3F)nc12)N1CC[C@H](O)C1
B: Cc1cc(Nc2ncnc3ccc(NC4=NC(C)(C)CO4)cc23)ccc1Oc1ccn2ncnc2c1
Compare %-inhibition at 1 µmol/L, FYN [isoform b]: is it lower for A or for B ? Let me know the label of the one you choose. B

---

# target entity: panel of 255 wild-type kinases (Homo sapiens)
# method: Kinase panel profiling at 1 µmol/L (MSA or IMAP), percentage inhibition
# Assay type: biochemical
# conditions: kinase LATS2; 1 µmol/L single concentration; read-out: %-inhibition at 1 µmol/L, LATS2
endpoint label: inhibition at 1 µM (%)

Answered examples (5):
Find the measured inhibition at 1 µM: item Cn1cc(-c2cc3c(N4CCN(c5ncc([C@@](C)(N)c6ccc(F)cc6)cn5)CC4)ncnn3c2)cn1 , target or system panel of 255 wild-type kinases (Homo sapiens). 1.47

Find the measured inhibition at 1 µM: item CCN1C(=O)N(c2c(F)c(OC)cc(OC)c2F)Cc2cnc3[nH]c(CN4CCOCC4)cc3c21 , target or system panel of 255 wild-type kinases (Homo sapiens). -3

Find the measured inhibition at 1 µM: item FC(F)(F)c1ccc(CNc2ccc(Cc3c[nH]c4ncc(Cl)cc34)cn2)cn1 , target or system panel of 255 wild-type kinases (Homo sapiens). 4

Find the measured inhibition at 1 µM: item COC(=O)N[C@@H](C)CNc1nccc(-c2cn(C(C)C)nc2-c2cc(Cl)cc(NS(C)(=O)=O)c2F)n1 , target or system panel of 255 wild-type kinases (Homo sapiens). 3.49

Find the measured inhibition at 1 µM: item CCc1nc(C(N)=O)c(Nc2ccc(N3CCC(N4CCN(C)CC4)CC3)c(OC)c2)nc1NC1CCOCC1 , target or system panel of 255 wild-type kinases (Homo sapiens). 44

P: C[C@H](Nc1ncnc2nc[nH]c12)c1cc2cccc(Cl)c2c(=O)n1-c1ccccc1
Q: COc1ccc(CN2C3CC2CN(c2ccc(-c4cc(OCC(C)(C)O)cn5ncc(C#N)c45)cn2)C3)cn1
Of the two listed items, which has the higher inhibition at 1 µM? First: P Second: Q Let me know the label of the one you choose. P
